experiment: Fluorescence assay for glutathione: Kd from absorption/fluorescence change on glutathione addition; assay type: binding; conditions: from values at absorption peak wavelength (593 nm) against glutathione concentration; read-out: dissociation constant Kd
pKd: −log10 of the molar value.
test.readout: pKd

INSERT INTO assay_data (smiles_notation, number) VALUES
  ('Cc1ccccc1C1=C2C=CC(=N)C=C2[Si](C)(C)c2cc(N)ccc21', 3.00);

====

experiment: Ultraviolet-visible and fluorescence spectroscopy of the probes; format: physicochemical; conditions: Table 1; 1 μM probe, 0.2 M sodium phosphate buffer pH 7.4, 0.1-1% DMSO
test.readout: Absorption peak [nm] (nm)

INSERT INTO assay_data (smiles_notation, unit, number) VALUES
  ('CN(C)c1ccc2c(c1)[Si](C)(C)C1=CC(=[N+](C)C)C=CC1=C2c1ccccc1C#N', 'nm', 658),
  ('Cc1ccccc1C1=C2C=CC(=N)C=C2[Si](C)(C)c2cc(N)ccc21', 'nm', 593),
  ('CN(C)c1ccc2c(c1)[Si](C)(C)C1=CC(=[N+](C)C)C=CC1=C2c1ccccc1O', 'nm', 648),
  ('COc1ccccc1C1=C2C=CC(=[N+](C)C)C=C2[Si](C)(C)c2cc(N(C)C)ccc21', 'nm', 649),
  ('CN1CCOc2cc3c(cc21)[Si](C)(C)c1cc2c(cc1=C3c1ccccc1O)OCC[N+]=2C', 'nm', 699),
  ('CN(C)c1ccc2c(c1)[Si](C)(C)C1=CC(=[N+](C)C)C=CC1=C2c1ccccc1', 'nm', 645),
  ('COc1ccccc1C1=c2cc3c(cc2[Si](C)(C)c2cc4c(cc21)OCCN4C)=[N+](C)CCO3', 'nm', 699);

====

test: Fluorescence assay for glutathione: Kd from absorption/fluorescence change on glutathione addition; type: binding; details: from values at fluorescence peak wavelength (614 nm) against glutathione concentration; excitation 590 nm; read-out: dissociation constant Kd
test.readout: Kd (mM)

INSERT INTO assay_data (compound, test_readout, unit, number) VALUES
  ('Cc1ccccc1C1=C2C=CC(=N)C=C2[Si](C)(C)c2cc(N)ccc21 [Compound 1, 2Me SiR600]', 'Kd', 'mM', 1.1);

====

assay: Ultraviolet-visible and fluorescence spectroscopy of the probes; assay type: physicochemical; conditions: Table 2; same conditions as Example 2
Listing: Fluorescence peak [nm] of selected compounds
test.readout: Fluorescence peak [nm]

INSERT INTO measurements (compound, result) VALUES
  ('CN=C1C=CC2=C(c3ccccc3O)c3ccc(NC)cc3[Si](C)(C)C2=C1.O=C(O)C(F)(F)F [Compound 17]', '643 nm'),
  ('Cc1ccccc1C1=c2cc3c(cc2[Si](C)(C)c2cc4c(cc21)OCCN4C)=[N+](C)CCO3 [Compound 27]', '738 nm'),
  ('CN(C)c1ccc2c(c1)[Si](C)(C)C1=CC(=[N+](C)C)C=CC1=C2c1ccccc1F [Compound 18]', '677 nm'),
  ('CN(C)c1ccc2c(c1)[Si](C)(C)C1=CC(=[N+](C)C)C=CC1=C2c1cccc(C(F)(F)F)c1 [Compound 21]', '673 nm');

====

assay: Ultraviolet-visible and fluorescence spectroscopy of the probes; format: physicochemical; settings: Table 2; same conditions as Example 2
test.readout: Fluorescence peak [nm] (nm)

INSERT INTO measurements (smiles_notation, unit, number) VALUES
  ('CN(C)c1ccc2c(c1)[Si](C)(C)C1=CC(=[N+](C)C)C=CC1=C2c1ccccc1Cl', 'nm', 676),
  ('CN(C)c1ccc2c(c1)[Si](C)(C)C1=CC(=[N+](C)C)C=CC1=C2c1ccc(C(F)(F)F)cc1', 'nm', 673),
  ('Cc1ccccc1C1=C2C=CC(=[N+](C)C)C=C2[Si](C)(C)c2cc(N)ccc21', 'nm', 643),
  ('CCc1ccccc1C1=C2C=CC(=N)C=C2[Si](C)(C)c2cc(N)ccc21.O=C(O)C(F)(F)F', 'nm', 614),
  ('CN=C1C=CC2=C(c3ccccc3OC)c3ccc(NC)cc3[Si](C)(C)C2=C1.O=C(O)C(F)(F)F', 'nm', 643);
